Taken from PubChem BioAssay.

- assay_system: Focal adhesion kinase 1 (Homo sapiens) (UniProt Q05397)
- Sequence (Q05397 whole entry, looked up): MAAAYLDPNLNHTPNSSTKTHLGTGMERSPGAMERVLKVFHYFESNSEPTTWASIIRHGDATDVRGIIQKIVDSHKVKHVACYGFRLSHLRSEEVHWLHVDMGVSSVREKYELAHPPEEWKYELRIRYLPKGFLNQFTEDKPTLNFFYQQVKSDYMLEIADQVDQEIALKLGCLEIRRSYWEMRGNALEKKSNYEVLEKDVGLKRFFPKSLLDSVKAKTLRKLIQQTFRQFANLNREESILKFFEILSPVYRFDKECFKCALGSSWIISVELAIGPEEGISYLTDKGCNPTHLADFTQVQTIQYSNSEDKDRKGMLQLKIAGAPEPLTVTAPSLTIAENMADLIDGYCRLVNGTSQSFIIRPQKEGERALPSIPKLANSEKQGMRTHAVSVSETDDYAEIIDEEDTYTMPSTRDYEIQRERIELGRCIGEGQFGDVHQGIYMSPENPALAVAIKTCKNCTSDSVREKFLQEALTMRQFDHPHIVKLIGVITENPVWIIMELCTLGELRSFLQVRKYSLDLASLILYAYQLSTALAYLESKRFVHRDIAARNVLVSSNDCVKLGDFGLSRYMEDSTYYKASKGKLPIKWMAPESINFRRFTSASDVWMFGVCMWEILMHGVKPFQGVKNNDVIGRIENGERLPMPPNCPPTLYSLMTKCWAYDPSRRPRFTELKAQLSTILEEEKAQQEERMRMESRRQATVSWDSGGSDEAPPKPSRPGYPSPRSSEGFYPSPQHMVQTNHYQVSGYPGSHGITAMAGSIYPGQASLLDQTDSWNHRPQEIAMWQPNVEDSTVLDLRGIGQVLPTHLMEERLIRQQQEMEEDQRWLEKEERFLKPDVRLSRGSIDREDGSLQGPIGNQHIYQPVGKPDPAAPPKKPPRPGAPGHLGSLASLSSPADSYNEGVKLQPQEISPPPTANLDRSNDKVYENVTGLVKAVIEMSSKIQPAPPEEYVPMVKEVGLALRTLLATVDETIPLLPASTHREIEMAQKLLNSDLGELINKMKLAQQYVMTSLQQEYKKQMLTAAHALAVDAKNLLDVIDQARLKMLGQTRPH
- assay_text: small-molecule microarray binders of FAK, primary screen, biochemical, 635/667 nm fluorescence, BSA, DTT (AID 1130);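 further: composite of spot emission at 667 nm and signal to noise over triplicate slides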
- test_conditions: PTK2 binding, 635 nm fluorescence, higher = more signal
Class true: composite z-score at least 0.1. Class false: composite z-score below 0.1.

Check the entry "CC(C)CON=C1C[C@@H](O)[C@@H](O)[C@@H]2[C@@H]3C(=O)N(c4cccc(Oc5ccccc5)c4)C(=O)[C@@H]3CC[C@H]12" : does composite z-score equal or exceed 0.1?
false

Check the entry "CCOC(=O)CCN1C(=O)[C@H]2[C@H]3[C@H](O)[C@H](O)CC(=NNC(=O)OCC)[C@@H]3CC[C@H]2C1=O" : does composite z-score equal or exceed 0.1?
true

Check the entry "CCCNC(=O)OC[C@H]1O[C@H](CCON=C(C)CCN2CCc3nc(-c4ccccc4)c(-c4ccccc4)cc3C2)C=C[C@@H]1Oc1ccc(OC)cc1" : does composite z-score equal or exceed 0.1?
true

Check the entry "CCOC(=O)NN=C1C[C@@H](O)[C@@H](O)[C@@H]2[C@@H]3C(=O)N(Cc4ccccc4)C(=O)[C@@H]3CC[C@@H]12" : does composite z-score equal or exceed 0.1?
false

Check the entry Cc1cc2c(nc1C)CCCN2CC(C)ON=C[C@@H](C)[C@H](OCc1ccccc1)C(C)C (some centres undefined) : does composite z-score equal or exceed 0.1?
true

Check the entry "CC(C)=CCCC(C)=CCON=C1C[C@@H](O)[C@@H](O)[C@@H]2[C@@H]3C(=O)N([C@@H](C)c4ccccc4)C(=O)[C@@H]3CC[C@H]12" : does composite z-score equal or exceed 0.1?
true

Check the entry COC(=O)[C@H](C)NC(=O)CCC1CC(OC(=O)NCCc2ccc(F)cc2)CC2(CCCC(COC(=O)NCCCN3CCCC3=O)O2)O1 (some centres undefined) : does composite z-score equal or exceed 0.1?
true

Check the entry "O=C1[C@H]2[C@H]3[C@H](O)[C@H](O)CC(=NOCc4ccccc4)[C@H]3CC[C@H]2C(=O)N1Cc1ccccc1" : does composite z-score equal or exceed 0.1?
false

Check the entry "CCCNC(=O)OC[C@H]1O[C@H](CCON=C(C)CCC(=O)OC[C@H]2O[C@H](C#Cc3ccccc3)C=C[C@@H]2Oc2ccc(C)cc2)C=C[C@@H]1Oc1ccc(OC)cc1" : does composite z-score equal or exceed 0.1?
false

Check the entry "C[C@@H](c1ccccc1)N1C(=O)[C@H]2[C@H]3[C@H](O)[C@H](O)CC(=O)[C@@H]3CC[C@H]2C1=O" : does composite z-score equal or exceed 0.1?
true

Check the entry "C[C@@H]1CC[C@@H](C(=O)O)N[C@H]1c1ccc(-c2ccco2)cc1" : does composite z-score equal or exceed 0.1?
false

Check the entry "CO[C@H]1COC(=O)CC=C[C@@H](C)COC(=O)[C@@H](OCc2ccccc2)C=C[C@@H]1C" : does composite z-score equal or exceed 0.1?
false

Check the entry "CC(=O)OC[C@H]1O[C@H](C#CC(C)(C)C)C=C[C@@H]1OC(C)=O" : does composite z-score equal or exceed 0.1?
true

Check the entry CCOC(=O)[C@H](Cc1ccccc1)NC(=O)CCC1CC(OC(=O)NCc2cccc3ccccc23)CC2(CCCC(COC(=O)NCCCN3CCCC3=O)O2)O1 (some centres undefined) : does composite z-score equal or exceed 0.1?
true

Check the entry "CCOC(=O)NN=C1C[C@@H](O)[C@@H](O)[C@@H]2[C@@H]3C(=O)N(Cc4ccc5c(c4)OCO5)C(=O)[C@@H]3CC[C@@H]12" : does composite z-score equal or exceed 0.1?
false

Check the entry "CO[C@@H]1C=CCC(=O)N2CCC[C@H]2C(=O)OC[C@H](C)C(=O)OC[C@H]1C" : does composite z-score equal or exceed 0.1?
false

Check the entry "CC(C)C(=O)N[C@@H]1CCCN1C(=O)C=Cc1ccccc1" : does composite z-score equal or exceed 0.1?
true

Check the entry "CO[C@H]1COC(=O)[C@H](C)NC(=O)CC=C[C@@H](C)[C@H](OC)COC(=O)CC=C[C@@H]1C" : does composite z-score equal or exceed 0.1?
false
